Target: Integrase (Human immunodeficiency virus 1)
Assay: Inhibitory concentration against human immuno deficiency virus type 1 integrase (Strand Transfer)
MEASURE: pIC50
Answers are plain numbers, as −log10 of the molar value.

Example results:
- O=C(CN1C(=O)/C(=C2\SC(=S)N(CC(=O)Nc3ccc(C(=O)O)cc3)C2=O)SC1=S)Nc1ccc(C(=O)O)cc1: 4.12
- O=C(CN1C(=O)/C(=C/c2ccccc2Cl)SC1=S)Nc1cc([N+](=O)[O-])ccc1O: 4.74
- O=C(CCN1C(=O)/C(=C/c2ccc3c(c2)OCO3)SC1=S)Nc1ccc2c(c1)OCO2: 4.03
- COc1ccc(/C=C2/SC(=S)N(CCC(=O)Nc3ccc(C(=O)O)c(O)c3)C2=O)cc1OC: 4.77
- O=C(NN1C(=O)C(=Cc2ccc(Br)cc2)SC1=S)c1ccccc1O: 4.57

Would you be so kind as to report pIC50 for each listed record?
1. Cc1ccc(/C=C2\SC(=S)N(CC(=O)Nc3cc([N+](=O)[O-])ccc3O)C2=O)cc1
2. COc1ccccc1/C=C1/SC(=S)N(CCC(=O)Nc2ccc(O)cc2)C1=O
3. O=C(CCN1C(=O)/C(=C/c2ccc3c(c2)OCO3)SC1=S)Nc1ccc(O)c(C(=O)O)c1
4. O=C(CCN1C(=O)/C(=C/c2cccs2)SC1=S)Nc1ccc(O)c(C(=O)O)c1
5. O=C(CN1C(=O)/C(=C2\SC(=S)N(CC(=O)Nc3ccc(O)cc3)C2=O)SC1=S)Nc1ccc(O)cc1
6. CCc1ccc(/C=C2\SC(=S)N(CCC(=O)Nc3ccc(O)c(C(=O)O)c3)C2=O)cc1

Result:
1. 4.10
2. 4.00
3. 4.77
4. 4.42
5. 4.16
6. 4.96

###

Target: Integrase (Human immunodeficiency virus 1)
Assay: Inhibitory concentration against human immuno deficiency virus type 1 integrase (Strand Transfer)
Would you mind telling me the reported pIC50 of each entry?
One number for each entry, as −log10 of the molar value.

Example results:
• COc1cc(/C=C2/SC(=S)N(CCC(=O)Nc3ccc(C(=O)O)cc3)C2=O)cc(OC)c1OC = 4.07
• O=C(CCCN1C(=O)/C(=C\c2cccs2)SC1=S)Nc1ccc(O)c(C(=O)O)c1 = 4.46
• CCOc1cc(C=C2SC(=S)N(NC(=O)c3ccccc3O)C2=O)ccc1O = 4.42

Would you be so kind as to report pIC50 for each listed record?
1. Cc1ccc2nc(C(C#N)=Cc3ccc(-c4ccc(O)c(C(=O)O)c4)o3)[nH]c2c1
2. Cc1ccc(/C=C2\SC(=S)N(CCC(=O)Nc3ccc(S(=O)(=O)Nc4nccs4)cc3)C2=O)cc1
3. O=C(CCN1C(=O)/C(=C/c2ccc3c(c2)OCO3)SC1=S)Nc1ccc(C(=O)O)c(O)c1
4. O=C1/C(=C/c2c(NCCO)nc3ccccn3c2=O)SC(=S)N1Cc1ccco1

Result:
1. 5.10
2. 4.36
3. 4.64
4. 4.00

###

Would you mind telling me the reported pIC50 of each entry?
Molecular target: Integrase (Human immunodeficiency virus 1)
Test: Inhibitory concentration against human immuno deficiency virus type 1 integrase (3'-processing)
Give bare numbers, as −log10 of the molar value.

* Cc1ccc(/C=C2\SC(=S)N(CCC(=O)Nc3ccc(S(=O)(=O)Nc4nccs4)cc3)C2=O)cc1 | 4.08

Would you be so kind as to report pIC50 for each listed record?
1. O=C(CCCN1C(=O)/C(=C\c2cccs2)SC1=S)Nc1ccc(O)c(C(=O)O)c1
2. CCOc1cc(C=C2SC(=S)N(NC(=O)c3ccccc3O)C2=O)ccc1O

Result:
1. 4.36
2. 4.15

Would you be so kind as to report pIC50 for each listed record?
1. COc1ccccc1/C=C1/SC(=S)N(CCC(=O)Nc2ccc(O)cc2)C1=O
2. Cc1ccc(/C=C2\SC(=S)N(CCC(=O)Nc3cccc(C(=O)O)c3)C2=O)cc1
3. O=C(O)c1ccc(S(=O)(=O)c2ccc3c(c2)C(=O)N(c2ccc(O)c(C(=O)O)c2)C3=O)cc1
4. Cc1ccc2nc(C(C#N)=Cc3ccc(-c4ccc(O)c(C(=O)O)c4)o3)[nH]c2c1

Result:
1: 4.00; 2: 4.00; 3: 4.18; 4: 4.80

Would you be so kind as to report pIC50 for each listed record?
1. CCc1ccc(/C=C2\SC(=S)N(CCC(=O)Nc3ccc(O)c(C(=O)O)c3)C2=O)cc1
2. O=C(CN1C(=O)/C(=C2\SC(=S)N(CC(=O)Nc3ccc(O)cc3)C2=O)SC1=S)Nc1ccc(O)cc1
3. COc1cc(/C=C2\SC(=S)N(CC(=O)Nc3cc(Cl)ccc3O)C2=O)cc(OC)c1OC

Result:
[4.82, 4.23, 4.49]

Would you be so kind as to report pIC50 for each listed record?
1. Cc1ccc(/C=C2\SC(=S)N(CC(=O)Nc3cc([N+](=O)[O-])ccc3O)C2=O)cc1
2. O=C(CCN1C(=O)/C(=C/c2cccs2)SC1=S)Nc1ccc(O)c(C(=O)O)c1

Result:
[4.08, 4.42]

Value of pIC50 reported for the molecule CC(/C=C1\SC(=S)N(CCC(=O)Nc2ccc(O)c(C(=O)O)c2)C1=O)=C\c1ccccc1 is 4.44
